From: patent US20250101098A1

- systemTested: T1, recombinant human Nectin-4-His protein (human, UniProt Q96NY8 32-349)
- T1 construct: Rescreening antigen and bought ELISA antigen are treated as one molecule; also called human Nectin-4-His tagged; Ag1; not shown: His tag
- T1 sequence: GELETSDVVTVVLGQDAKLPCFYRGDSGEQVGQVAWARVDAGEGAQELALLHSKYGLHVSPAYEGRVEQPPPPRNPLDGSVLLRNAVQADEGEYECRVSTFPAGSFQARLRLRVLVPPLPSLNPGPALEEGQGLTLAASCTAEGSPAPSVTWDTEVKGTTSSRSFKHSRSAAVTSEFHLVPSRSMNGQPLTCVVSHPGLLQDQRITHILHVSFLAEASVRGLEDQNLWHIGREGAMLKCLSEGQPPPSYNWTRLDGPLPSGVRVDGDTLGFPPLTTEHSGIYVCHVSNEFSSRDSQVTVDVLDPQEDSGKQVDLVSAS
- procedureDetails: ELISA, coated antigen
parameter: pEC50
Would you please state pEC50, meaning minus log10 of the concentration in mol/L, as a bare number?

Consider the following illustrative entries.
| binder | parameter | testResult |
| --- | --- | --- |
| Nectin-4 5D9 VH1/VL3 (antibody, V domains shown, Humanized; also called 5D9 VH variant 1 / 5D9 VL variant 3) VH: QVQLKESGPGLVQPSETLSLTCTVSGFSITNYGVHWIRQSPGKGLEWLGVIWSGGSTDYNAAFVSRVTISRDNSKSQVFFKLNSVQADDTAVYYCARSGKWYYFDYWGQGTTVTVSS VL: DIQMTQSPSSLSASVGDRVTITCRASQSIYSNLAWYQQKPGKAPKLLVYAATNLASGVPSRFSGSGSGTDFTLTISSLQPEDFATYYCQHFWGTPTFGGGTKVEIK | pEC50 | 9.49 |
| Nectin-4 5D9 VH2/VL1 (antibody, V domains shown, Humanized; also called 5D9 VH variant 2 / 5D9 VL variant 1) VH: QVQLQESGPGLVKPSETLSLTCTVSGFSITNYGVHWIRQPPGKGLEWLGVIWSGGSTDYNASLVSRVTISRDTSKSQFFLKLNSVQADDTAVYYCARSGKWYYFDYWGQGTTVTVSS VL: DIQMTQSPASLSASVGDTVTITCRASQNIYSNLAWYQQKQGKSPQLLVYAATNLADGVPSRFSGSGSGTQYTLKINSLQSEDFGTYYCQHFWGTPTFGGGTKVEIK | pEC50 | 9.55 |
| Nectin-4 5D9 VH5/VL1 (antibody, V domains shown, Humanized; also called 5D9 VH variant 5 / 5D9 VL variant 1) VH: QVQLQESGPGLVKPSETLSLTCTVSGGSLTNYGVHWVRQPPGKGLEWIGVIWSGGSTNYNPSLKSRVTISRDTSKNQVSLKLSSVTAADTAVYYCARSGKWYYFDYWGQGTLVTVSS VL: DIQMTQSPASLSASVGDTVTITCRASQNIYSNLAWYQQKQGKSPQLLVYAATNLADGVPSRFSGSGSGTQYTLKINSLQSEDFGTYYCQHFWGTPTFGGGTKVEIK | pEC50 | 7.48 |

Please give measured pEC50 of the following entry: Nectin-4 5D9 VH5/VL3 (antibody, V domains shown, Humanized; also called 5D9 VH variant 5 / 5D9 VL variant 3) VH: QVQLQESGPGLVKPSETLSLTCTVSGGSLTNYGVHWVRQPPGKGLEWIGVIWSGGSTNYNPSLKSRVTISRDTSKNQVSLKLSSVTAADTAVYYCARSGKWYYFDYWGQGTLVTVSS VL: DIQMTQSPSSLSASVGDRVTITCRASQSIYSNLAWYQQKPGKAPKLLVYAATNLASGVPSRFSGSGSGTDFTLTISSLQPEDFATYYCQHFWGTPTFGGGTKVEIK
9.15

Report pEC50, nothing else, for this binder: Nectin-4 5D9 VH4/VL2 (antibody, V domains shown, Humanized; also called 5D9 VH variant 4 / 5D9 VL variant 2) VH: QVQLQQSGPGLVKPSETLSLTCTVSGFSLTNYGVHWVRQPPGKGLEWLGVIWSGGSTDYNPSLKSRLTISRDTSKNQVSFKMSSVTAADTAVYYCARSGKWYYFDYWGQGTLVTVSS VL: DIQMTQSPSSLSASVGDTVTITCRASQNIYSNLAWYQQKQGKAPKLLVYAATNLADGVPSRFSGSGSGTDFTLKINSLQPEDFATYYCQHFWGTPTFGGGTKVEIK
9.63
